# Test system: K4 kissing-loop RNA reporter;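 also: bound reporter read as fluorescence of individual clusters on recovered sequencing chips by microscopy, with normalized cluster intensities fitted with a binding model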
# test-summary: apparent KD of K4 kissing-loop reporter; higher = weaker reporter binding
# conditions-used: Eterna round: R107; input ligand: theophylline 20 uM
measurement-name: apparent KD of K4 kissing-loop reporter (nM)

>>> reported_value("AGAUGUUUAGCUCAAAGAACGAAAAUGGAAGGAGCGUGCGAAAGCACAGGUAGGUCGCCAGUGAUGUUGGAACCUGAGCAUCAAA [#SwitchBubble 16 #K4Late]")
244
>>> reported_value("UUUAAAUAUAGUGAUGUUAUAUAACAAUGACGAGGACCGGUACGGCCGCCACUCGAGAGAGAUAAUGAUAAAAUAAAUAAUUUUC [AstrosSSTrypA#1]")
628
>>> reported_value("AAGUAGAUCAAGAUCUAGUAUCUAGAUCAACGAGGACCGGUACGGCCGCCACUCGAAUAAUAGAGUGAUGUUCUAAGAUCUACAA [AK1.4 SS Tryptophan A]")
968
>>> reported_value("UGUCAUUGGUCGGCCGCCACUAGGACCGGGUAUAGCCUAGUGAUGUUAGUAAGUACGGCCGCCACUAGGACCGGGACCGAUGACU [KL-SSTryp-B21 #DoubleAptamer]")
674
>>> reported_value("UGUGAUGUGUAGUGUUAUGUUUUGCGGGAUACCAGAGUCUUUUUAUUCCCUUGGCAGCUUGAGUGAUGUUUGAUGCUGUUCUUGU [cxxdmullin]")
410
>>> reported_value("UGCAGUGAUGUUGCGAGUGGCAGAUACGAAGGAGCGUGGUGAGACACAGGUAGGUCGCGUAUUGAAAUUGCUGUCACUAAAAUGC [#7]")
483
>>> reported_value("CCGAUACAUUAUUCUACGGCCGAGAGUGAUACCAGCCGUAUUUGUGGCCCUUGGCAGCGCAGAUGCAGUGAUGUUGCAUACUUGU [Same State Theophylline A GF 20]")
96.6
>>> reported_value("GGAUAGGAUAGAGGAUAUGGAAAACACAAAAGUGACUUGUUGUGUUUAUCCAUAGGGAGUGAUGUUCCAGAAGGCUGUCCUAUCG [MatMod 23 - Jieux - Exclusion - FMN B]")
164
>>> reported_value("AGACUACCACACUGUCAAUAGACAGUGAACUAGGAUAUGCUGAUAAGCAGAAGGAGUGAUGUUCCCAGGUAGUCAAUAAAAUAAU [FmnAX 13 C66]")
331
>>> reported_value("AAAAUAAACCAGUGAUGUUGGUGUCUAGAUACCAGCGACGAAAGUCGCCCUUGGCAGCUGUGGACGUACAAAAUAAGUACGUCCU [MatMod 5 - Jieux - Same State - Theophylline A]")
480
>>> reported_value("UGACUGGAUGGAAGGAGCGCUAAACUCCUAGUGAUGUUAGGGAUACGAGGCAAAGCCUCGAAGCAGGUAGGUCGCCAUCUAGUCU [FiskerMod 21 - Jieux - Same State - Arginine B]")
171

---

# Test system: MS2 coat protein
# test-summary: apparent KD of MS2 coat protein; designed switch direction (-1 OFF switch, 1 ON switch): -1; higher = weaker reporter binding
# conditions-used: Eterna round: R95; input ligand: microRNA oligo, concentration not stated
apparent KD of MS2 coat protein values, listed per item
measurement-name: apparent KD of MS2 coat protein

>>> reported_value("GAGAGGUCAGGAUAUACGGAGAGAGAGAGUAGGUGAGGGUAACAUGAGGAUCACCCAUGUAGAAGGGACUAAGG [JR_Exclu2_Sub075] (puzzle: Exclusion 2)")
"0.0484 µM"
>>> reported_value("UUUAAUUUUUUUUUUUUACAAGCUUUUUGCUCGUCUUAUACAUGAGGAUCACCCAUGUGGGUGAAAGAUAGAUUGUC [JMF's solution 3] (puzzle: Sensor v3, turn-off variant 2)")
"0.0204 µM"
>>> reported_value("AGUACUAUGCGAGCUGACUUGCGUAGUGCAGCAGGUGUUACAUGAGGAUCACCCAUGUCCUCAUUUGCUCGUCUUAA [Mat - Sensor v3 - Turn-off var 2 - D7] (puzzle: Sensor v3, turn-off variant 2)")
"0.0918 µM"
>>> reported_value("GUGUACAGAGGAUAUACUUGAAUCUAGCGAAGCUAGGUUUGACAUGAGGAUCACCCAUGUAGAAGGCUGUACAC [Dot plot directed A v1] (puzzle: Exclusion 2)")
"0.0137 µM"
>>> reported_value("AAAAAGCUAGGAUAUACAUGAGGAUCACCCAUGUGAGGGCACCGCGGGCGCGGGACCGGUAGAAGGAGCAAAAA [Exc;s3-III] (puzzle: Exclusion 3)")
"0.0249 µM"

---

# Tested on: MS2 coat protein
# test-summary: apparent KD of MS2 coat protein; higher = weaker reporter binding
# conditions-used: Eterna round: R107; input ligand: theophylline 20 uM
Entry flag: Met if apparent KD of MS2 coat protein reaches 20 nM; Not met if it does not.

>>> answer_label("AAUACCGGAUCGGCCGCCACUGGUUGGCCCUGUGUACAUGAGGAUCACCCAUGUCCAUCCCAAGCCAGGACCGGGAUCUUUGUGU [Bedice]")
"Met"
>>> answer_label("UGACAUUGCUGCGAUACCAGACAUGAGGAUCACCCAUGUACCAAGAAAACGUACAUAAAUGUCCCUUGGCAGCGCAGCAAUGUCU [MAT - Exclusion Theophlline B - Mod of Eli - D25]")
"Met"
>>> answer_label("AUCGCACCUGGUGAUACCAGCGUUUGCUCGCGACAUGAGGAUCACCCAUGUGGCCAGUGAUGCCCUUGGCAGCAUGGGCGGUGCA [Same State - Theophylline B (Freestyle 28)]")
"Met"
>>> answer_label("GGCCGAUGGUGCGAUACCAGCUUGAGUGUACUGGCCAGGUACAUGAGGAUCACCCAUGUAAGCCCUUGGCAGCGCGUCAGAGGCC [#1 Exclusion - Theophylline B Attempt #21 (HarryS)]")
"Not met"
>>> answer_label("AUACAUGAGGAUCACCCAUGUCACACAGAAGGAGCGGCUGUAGAGCCAGGUAGGUCGCUGUACUCAAAAUACUUCAUACUCAUGU [JR_Nu_ExcArginiA_Sub033]")
"Met"

---

Below, each entry is listed alongside its reported apparent KD of MS2 coat protein.
# Test system: MS2 coat protein
# test-summary: apparent KD of MS2 coat protein; designed switch direction (-1 OFF switch, 1 ON switch): 1; higher = weaker reporter binding
# conditions-used: Eterna round: R95; input ligand: FMN 200 uM
measurement-name: apparent KD of MS2 coat protein

>>> reported_value("GGGAAGAGGGACAAGGAUAUGUCAGGAGAGACAUGAGGAUCACCCAUGUGGAGGUUGGAGCAGAGACAGAAGGUGUACGGAGAGA [JR_SS2_Sub010] (puzzle: Same State 2)")
"0.108 µM"
>>> reported_value("GAGGAACAUGAGGAUCACCCAUGUAAAGGGUUUAAAGGAUAUUAUUGGGAGAAAGUAGGGUAAGAAGGUUGAUUGG [JR_SS1_Sub087] (puzzle: Same State 1)")
"0.12 µM"
>>> reported_value("AUAAAACAUGAGGAUCACCCAUGUCAACAAAGUCGAGGAUAUGGGCAAAUAAAAUAAGAAUCAGAAGGCGAAUAAU [salish99_ss1_r3_030] (puzzle: Same State 1)")
"0.265 µM"
>>> reported_value("AGUCCAGCCUGAGCUGGACAAAAGCAUGUACAUGAGGAUCACCCAUGUUCAUGUACAAGCUUUUUGCUCGUCUUGUA [salish99_208a_r3_102x] (puzzle: Sensor for hsa-mir-208a)")
"0.367 µM"
>>> reported_value("AUAAGUUCGAUGCUCGUCUCUCCGUACAAACAUGAGGAUCACCCAUGUGGCCGGGAAGUAGCCCGACCAGUAUGGCC [Tearbeorve] (puzzle: Sensor for hsa-mir-208a)")
"0.0386 µM"

---

# Tested on: MS2 coat protein
# test-summary: apparent KD of MS2 coat protein; higher = weaker reporter binding
# conditions-used: Eterna round: R101; input ligand: FMN 200 uM
Documented apparent KD of MS2 coat protein across a set of sequences
measurement-name: apparent KD of MS2 coat protein (nM)

>>> reported_value("CUUACUUUGUAGAAGGGUGACAUGAGGAUCACCCAUGUGCGUCGCCUGAAAGACCAGGGUACGCCACAGGAUAUACAAAGUAAG [Titerexe] (puzzle (switch architecture): Inverted Same State NG 2)")
128
>>> reported_value("AGUGUCAUCGAGAAGGCCUCAAAAUGAGGAUCACCCAUGUUGUAAUAUGGGAGGAUAUCGAUGAUACAGCUACGUUUCGUAGCA [salish99_InSLSSNG1_020 #HINGE] (puzzle (switch architecture): Inverted Small Loop Same State NG 1)")
58.9
>>> reported_value("AAGCACGAAGAUUAUUAUGAAUAAACAUGAGGAUCACCCAUGUAGGAUAUCGACUCGAAUAGAGUCGAGAAGGACAAAACGUGC [#BasePairInsertion1E] (puzzle (switch architecture): Exclusion NG 3)")
11.6
>>> reported_value("CCUGCACUUCAAGGAUAUCCAGUCGUUUCGACUGGAGAAGGUGAGGAUCACCCAUCUAGCCUGACGUUUGUCAGGCAUGCAGGU [#AddUracilToBrourdLoops 7 - Jieux - Exclusion NG1] (puzzle (switch architecture): Exclusion NG 1)")
81.7

// data source = the supplement of paper PMC9170038
